ASSAY_TARGET: Met receptor (EGFR/Met chimeric cells, EMR) (Homo sapiens, UniProt P08581)
Construct: expressed in transfected cells; the other entry of the earlier key: EGFR (P00533, Epidermal growth factor receptor)
Sequence (P08581 with tags, fused parts or gaps): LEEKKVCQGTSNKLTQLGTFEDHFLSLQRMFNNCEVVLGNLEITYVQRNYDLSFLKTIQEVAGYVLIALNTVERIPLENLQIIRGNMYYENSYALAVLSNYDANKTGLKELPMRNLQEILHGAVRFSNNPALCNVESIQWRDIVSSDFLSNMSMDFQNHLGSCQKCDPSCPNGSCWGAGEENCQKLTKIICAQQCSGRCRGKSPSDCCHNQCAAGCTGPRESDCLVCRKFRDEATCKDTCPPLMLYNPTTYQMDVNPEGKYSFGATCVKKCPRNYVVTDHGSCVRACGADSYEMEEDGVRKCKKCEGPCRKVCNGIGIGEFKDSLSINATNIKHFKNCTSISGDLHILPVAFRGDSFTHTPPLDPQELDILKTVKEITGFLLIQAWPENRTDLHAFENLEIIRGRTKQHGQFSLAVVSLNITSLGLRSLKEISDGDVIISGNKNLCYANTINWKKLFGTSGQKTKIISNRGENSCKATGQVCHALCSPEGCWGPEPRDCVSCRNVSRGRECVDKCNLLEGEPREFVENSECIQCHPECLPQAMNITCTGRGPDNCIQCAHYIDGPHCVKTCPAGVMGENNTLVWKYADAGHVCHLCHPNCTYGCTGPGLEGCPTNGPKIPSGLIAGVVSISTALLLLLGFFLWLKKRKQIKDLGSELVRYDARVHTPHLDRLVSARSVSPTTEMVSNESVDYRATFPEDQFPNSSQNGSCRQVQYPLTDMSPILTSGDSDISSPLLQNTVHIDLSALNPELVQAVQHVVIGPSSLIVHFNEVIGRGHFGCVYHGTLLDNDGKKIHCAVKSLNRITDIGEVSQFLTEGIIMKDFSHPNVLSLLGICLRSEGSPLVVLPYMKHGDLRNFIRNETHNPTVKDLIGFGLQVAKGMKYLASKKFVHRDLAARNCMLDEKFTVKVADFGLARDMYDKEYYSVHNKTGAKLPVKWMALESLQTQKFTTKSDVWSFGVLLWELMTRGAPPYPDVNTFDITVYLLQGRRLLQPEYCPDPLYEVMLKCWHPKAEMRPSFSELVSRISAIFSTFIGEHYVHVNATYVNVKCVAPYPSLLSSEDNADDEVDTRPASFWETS
TEST_NAME: Met Autophosphorylation Assay
Assay type: biochemical
CONDITION_LABEL: protocol P.130
Met Kinase % Inhibition (P.130) below 60% gives NO; Met Kinase % Inhibition (P.130) at or above it gives YES.

Reference set, count: 5
CCCOc1ccc(C=C2C(=O)Nc3ccc(S(=O)(=O)Nc4ccc(C(F)(F)F)cc4)cc32)cc1 ... NO
CNS(=O)(=O)c1ccc2c(c1)C(=Cc1ccc(Oc3ccccc3)cc1)C(=O)N2 ... NO
CNS(=O)(=O)c1ccc2c(c1)C(=Cc1ccc(OC)c(O)c1)C(=O)N2 ... NO
O=C1Nc2ccc(CCCl)cc2C1=Cc1cccc(O)c1O ... YES
Cc1c(Br)cc(Br)c2c1C(=Cc1ccc(Oc3ccccc3)cc1)C(=O)N2 ... NO

Query: # bool: Met Kinase % Inhibition (P.130) of Cc1c(Br)cc(Br)c2c1C(=Cc1cccc(F)c1F)C(=O)N2 >= 60%
Reply: YES

Query: # bool: Met Kinase % Inhibition (P.130) of Cc1[nH]c2ccccc2c1C=C1C(=O)Nc2ccc(Br)c(C)c21 >= 60%
Reply: NO

Query: # bool: Met Kinase % Inhibition (P.130) of O=C1Nc2ccc(S(=O)(=O)Nc3ccc(C(F)(F)F)cc3)cc2C1=Cc1cc(Br)cs1 >= 60%
Reply: YES

Query: # bool: Met Kinase % Inhibition (P.130) of CCCCOc1ccc(C=C2C(=O)Nc3ccc(I)cc32)cc1 >= 60%
Reply: YES

* * *

For each record, write down the corresponding Biochem EGFR % Inhibition (P.167).
ASSAY_TARGET: EGFR (Homo sapiens)
Construct: endogenous in cells; host or cells: A431 cells (lysate, captured with SUMO1 anti-EGFR antibody)
Sequence (P00533 25-1210): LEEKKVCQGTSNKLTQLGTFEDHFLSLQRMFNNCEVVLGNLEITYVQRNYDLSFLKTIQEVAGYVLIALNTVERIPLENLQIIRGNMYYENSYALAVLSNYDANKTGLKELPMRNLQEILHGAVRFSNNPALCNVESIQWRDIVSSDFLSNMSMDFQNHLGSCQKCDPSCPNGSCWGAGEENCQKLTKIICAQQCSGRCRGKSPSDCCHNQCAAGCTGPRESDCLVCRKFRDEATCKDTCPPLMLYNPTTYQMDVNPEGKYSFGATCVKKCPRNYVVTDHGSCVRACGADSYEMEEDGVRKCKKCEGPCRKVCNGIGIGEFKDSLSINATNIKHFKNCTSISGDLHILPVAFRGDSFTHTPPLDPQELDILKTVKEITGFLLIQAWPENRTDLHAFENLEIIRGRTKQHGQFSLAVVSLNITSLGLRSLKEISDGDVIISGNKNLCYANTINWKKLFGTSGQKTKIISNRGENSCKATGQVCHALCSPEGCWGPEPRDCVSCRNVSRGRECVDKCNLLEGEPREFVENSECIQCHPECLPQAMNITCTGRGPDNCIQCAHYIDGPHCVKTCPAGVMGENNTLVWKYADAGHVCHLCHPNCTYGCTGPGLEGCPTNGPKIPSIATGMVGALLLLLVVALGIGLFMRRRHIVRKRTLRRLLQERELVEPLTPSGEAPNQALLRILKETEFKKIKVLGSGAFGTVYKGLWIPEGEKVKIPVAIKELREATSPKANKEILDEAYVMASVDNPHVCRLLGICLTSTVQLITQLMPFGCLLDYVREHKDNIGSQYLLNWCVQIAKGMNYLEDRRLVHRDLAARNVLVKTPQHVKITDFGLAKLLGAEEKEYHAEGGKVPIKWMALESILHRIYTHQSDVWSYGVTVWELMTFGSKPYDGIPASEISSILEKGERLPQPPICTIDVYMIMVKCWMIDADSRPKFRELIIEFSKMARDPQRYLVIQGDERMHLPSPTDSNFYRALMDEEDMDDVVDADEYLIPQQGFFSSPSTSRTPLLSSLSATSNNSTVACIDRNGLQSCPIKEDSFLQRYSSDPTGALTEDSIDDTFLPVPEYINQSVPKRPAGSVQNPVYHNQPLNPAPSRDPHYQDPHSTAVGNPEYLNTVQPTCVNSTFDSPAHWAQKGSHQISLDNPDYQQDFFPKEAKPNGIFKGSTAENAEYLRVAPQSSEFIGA
TEST_NAME: Biochemical EGFR Assay
Design: concentration or dose not given beside the values
Give bare numbers, in %.

// below: answered compounds
Cc1c(Br)ccc2c1C(=Cc1ccc(F)c(F)c1)C(=O)N2 ... 8.0
Cc1c(Br)cc(Br)c2c1C(=Cc1ccc(O)cc1O)C(=O)N2 ... 69.9
CNS(=O)(=O)c1ccc2c(c1)C(=Cc1cc(Cl)cc(Cl)c1O)C(=O)N2 ... 19.6
CC(=O)n1cc(C=C2C(=O)Nc3c(Br)cc(Br)c(C)c32)c2ccccc21 ... −20.1
COc1ccc(O)c(C=C2C(=O)Nc3c(Br)cc(Br)c(C)c32)c1 ... −62.8
Cc1c(Br)cc(Br)c2c1C(=Cc1cc(Cl)cc(Cl)c1O)C(=O)N2 ... 6.6
Cc1c(Br)ccc2c1C(=Cc1ccccc1C#N)C(=O)N2 ... −4.9
COc1cccc(C=C2C(=O)Nc3c(Br)cc(Br)c(C)c32)c1OC ... −3.5
Cc1c(Br)cc(Br)c2c1C(=Cc1cc(O)c3c(c1O)CCCC3)C(=O)N2 ... 31.2
O=C1Nc2ccc(S(=O)(=O)N3CCOCC3)cc2C1=Cc1cccc2ccccc12 ... 0.0

For each of the items listed, what is its Biochem EGFR % Inhibition (P.167)?
1. Cc1ccccc1C=C1C(=O)Nc2ccc(I)cc21
2. Cc1c(Br)cc(Br)c2c1C(=Cc1cc(C(F)(F)F)cc(C(F)(F)F)c1)C(=O)N2
3. O=C1Nc2ccc(S(=O)(=O)N3CCOCC3)cc2C1=Cc1ccccc1F
4. O=C1Nc2c(Br)cc(Br)cc2C1=Cc1cc(Cl)cc(Cl)c1O
5. Cc1c(Br)cc(Br)c2c1C(=Cc1cc(C(C)(C)C)c(OCc3ccccc3)c(C(C)(C)C)c1)C(=O)N2
6. O=C1Nc2ccc(I)cc2C1=Cc1cc(Cl)ccc1O
7. Cc1c(Br)cc(Br)c2c1C(=Cc1ccc(-c3ccccc3)cc1)C(=O)N2
8. C=C(C)C1CC=C(C=C2C(=O)Nc3c(Br)cc(Br)c(C)c32)CC1 (stereo not shown)

Reply:
[39.1, "−14.2", "−2.8", 18.5, 15.9, 38.7, "−4.2", "−1.7"]

Query: If you can, please state the reported Biochem EGFR % Inhibition (P.167) value of Cc1c(Br)ccc2c1C(=Cc1cccc(F)c1)C(=O)N2 .
Reply: −8.1
